target: PRMT5 (Homo sapiens, UniProt O14744)
Construct: purchased Viva (custom protein)
Sequence (O14744 whole entry): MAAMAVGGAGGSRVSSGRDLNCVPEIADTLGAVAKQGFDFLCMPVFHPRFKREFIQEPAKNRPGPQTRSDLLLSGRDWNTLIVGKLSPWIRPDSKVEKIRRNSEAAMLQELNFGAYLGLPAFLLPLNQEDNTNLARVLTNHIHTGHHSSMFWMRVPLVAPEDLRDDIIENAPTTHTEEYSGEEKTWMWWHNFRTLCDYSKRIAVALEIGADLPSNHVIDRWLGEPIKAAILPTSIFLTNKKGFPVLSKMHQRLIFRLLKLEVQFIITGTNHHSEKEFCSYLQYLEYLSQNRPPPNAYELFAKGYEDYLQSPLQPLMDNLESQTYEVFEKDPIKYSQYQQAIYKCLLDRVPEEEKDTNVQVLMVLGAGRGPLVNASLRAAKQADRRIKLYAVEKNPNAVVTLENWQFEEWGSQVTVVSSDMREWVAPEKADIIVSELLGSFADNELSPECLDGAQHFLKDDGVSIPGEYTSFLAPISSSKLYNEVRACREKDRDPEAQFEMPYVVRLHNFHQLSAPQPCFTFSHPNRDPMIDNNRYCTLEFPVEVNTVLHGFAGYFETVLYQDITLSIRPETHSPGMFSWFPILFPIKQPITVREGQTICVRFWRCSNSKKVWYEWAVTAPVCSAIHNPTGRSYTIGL
Sequence (Q9BQA1 whole entry partner): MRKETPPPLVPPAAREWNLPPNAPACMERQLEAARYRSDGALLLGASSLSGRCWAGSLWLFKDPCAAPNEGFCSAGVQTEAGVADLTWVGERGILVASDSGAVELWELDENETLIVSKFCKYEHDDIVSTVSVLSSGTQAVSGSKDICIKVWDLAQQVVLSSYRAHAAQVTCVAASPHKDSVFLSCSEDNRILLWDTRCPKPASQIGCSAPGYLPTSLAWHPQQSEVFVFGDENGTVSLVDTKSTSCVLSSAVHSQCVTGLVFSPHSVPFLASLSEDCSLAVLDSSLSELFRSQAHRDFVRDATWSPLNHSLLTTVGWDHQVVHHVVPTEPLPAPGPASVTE
measurement.notes: PRMT5 biochemical IC50 assay with MTA as cofactor
condition.info: PRMT5, MTA as cofactor; read-out: MTA IC50
pIC50: −log10 of the molar value.
Each entry below carries its reported pIC50.

Please review the following examples before continuing.
Cc1cncc(NC(=O)C(=O)N2C[C@H](C)CC[C@H]2c2ccc3ccccc3c2)c1 (racemic) [Compound 83]    6.30 to 7.30
CCc1cc(NC(=O)C(=O)N2C[C@H](C)CC[C@H]2c2cc3[nH]ncc3s2)cnc1N (single isomer, unassigned) [Compound 955]    > 7.30
Cc1cc(NC(=O)C(=O)N2C[C@H](C)CC[C@H]2c2ccc3c(c2)CCNC3=O)cnc1N (single isomer, unassigned) [Compound 994]    < 6.30
CCc1cc(NC(=O)C(=O)N2C[C@H](C)CC[C@H]2c2ccc(N3CCN(CC)CC3)cc2)cnc1N (single isomer, unassigned) [Compound 1097]    > 7.30
COc1ncc(NC(=O)C(=O)N2C[C@H](C)CC[C@H]2c2ccc(NC(C)=O)cc2)cc1C(N)=O (single isomer, unassigned) [Compound 760]    > 7.30

With those in mind, consider the next molecule.
Using the record for CCc1cc(NC(=O)C(=O)N2C[C@@H](C)CC[C@@H]2c2ccc(N3CCN(C)C[C@H]3C)nc2)cnc1N [Compound 1294] , report its pIC50. > 7.30

---

target: PRMT5 (Homo sapiens, UniProt O14744)
Construct: purchased Viva (custom protein)
measurement.notes: PRMT5 biochemical IC50 assay with SAM as cofactor
condition.info: PRMT5, SAM as cofactor; read-out: SAM IC50
pIC50: −log10 of the molar value.
Measured pIC50, listed per entry for reference.

CCc1cc(NC(=O)C(=O)N2C[C@@H](C)CC[C@@H]2c2ccc(N)nc2)cnc1N (single isomer, unassigned)    6.30 to 7.30
Cc1cc([C@H]2CC[C@H](C)CN2C(=O)C(=O)Nc2cncc(C(N)=O)c2)ccc1F (single isomer, unassigned)    > 7.30

Switching to the query record.
I would be grateful if you could share the reported pIC50 for Cc1ncc(NC(=O)C(=O)N2C[C@H](C)CC[C@H]2c2ccc3c(c2)CCC(=O)N3)cc1C(F)(F)F (single isomer, unassigned) . 6.30 to 7.30

---

target: PRMT5 (Homo sapiens, UniProt O14744)
Construct: purchased Viva (custom protein)
measurement.notes: PRMT5 biochemical IC50 assay with MTA as cofactor
condition.info: PRMT5, MTA as cofactor; read-out: MTA IC50
pIC50: −log10 of the molar value.
Recorded pIC50, one value per entry.

Some compounds with known pIC50 results, for comparison:
C[C@@H]1CCC[C@H](c2ccccc2)N1C(=O)C(=O)Nc1cncc(C(N)=O)c1 (single isomer, unassigned) [Compound 278]    6.30 to 7.30
COc1ncc(NC(=O)C(=O)N2C[C@@H](C)CC[C@@H]2c2ccc3nn(C)cc3c2)cc1C(N)=O (single isomer, unassigned) [Compound 1059]    > 7.30
CCc1cc(NC(=O)C(=O)N2C[C@@H](C)CC[C@@H]2c2cc(Cl)cc(OCCN(C)C)c2)cnc1N [Compound 1247]    > 7.30
Cc1cc(NC(=O)C(=O)N2C[C@H](C)CC[C@H]2c2ccc3scc(CCN(C)C)c3c2)cnc1N (racemic) [Compound 1142]    > 7.30
C[C@@H]1C[C@H](c2ccccc2)N(C(=O)C(=O)Nc2cncc(C(N)=O)c2)C[C@H]1C (racemic) [Compound 231]    > 7.30

Please examine the following record next.
What does the data say about its pIC50? Entry: COc1ncc(NC(=O)C(=O)N2C[C@H](C)CC[C@H]2c2ccc(NS(C)(=O)=O)cc2)cc1C(N)=O (single isomer, unassigned) [Compound 858] > 7.30
